// provenance: the supplement of paper PMC9170038

- System: MS2 coat protein
- PROTOCOL SUMMARY: apparent KD of MS2 coat protein; designed switch direction (-1 OFF switch, 1 ON switch): -1; higher = weaker reporter binding
- DETAILS: input ligand: microRNA oligo, concentration not stated
Please note: T applies when apparent KD of MS2 coat protein is 50 nM or greater, and F applies otherwise.

Check the entry ACAUGAGGAUCACCCAUGUUAGGUUGGUUUUCUCCGGCUGUUGAGGAUAUAGUCCGGUAUCCGCGCUAGAAGGUGAGGGUUGGC [Aenatbe mod 9] (Eterna round: R96, puzzle: Exclusion NG 3) : does apparent KD of MS2 coat protein equal or exceed 50 nM?
T

// inclusive: apparent KD of MS2 coat protein at least 50 nM? input: ACAUGACUGCUAGGAUAUAGAUGACAUGAGGAUCACCCAUGUUGUCCCAUGUUUAUGGAAACGGACUAGAAGGAGCAGCAUAUG [Ex NG2 #12] (Eterna round: R96, puzzle: Exclusion NG 2)
F

Given the entry UGAUCAGACCGAGGAUAUAUAUGUAGGACGCACGUGAGUGCGUCCAGUACAUGAGGAUCACCCAUGUAGAAGGCGGUCUGAUCU [JL ENG2 1.96] (Eterna round: R96, puzzle: Exclusion NG 2) , answer whether its apparent KD of MS2 coat protein meets or surpasses 50 nM.
F

Tell me whether apparent KD of MS2 coat protein is at least 50 nM here: AAUGCGGACAAAGGAUAUUGCGGUGACCGGCUCGGCGUACCGAGCCUACAUGAGGAUCACCCAUGUAAGAAGGUUGUCGCAAAA [Mat - Exclusion NG 2 - Mod of JL - D75] (Eterna round: R96, puzzle: Exclusion NG 2)
F

Does the sequence UUAUUAUAUGUAGGAUAUGCAUAUUGUUGUUAUGCAGAAGGACAUGAGGAUCACCCAUGUAUAUUAUUGUUGUAUAUUAUAUAU [Title] (Eterna round: R96, puzzle: Exclusion NG 1) have recorded apparent KD of MS2 coat protein that is 50 nM or more?
F

Entry CGGCAUGUAGAAGGAUAUCUGCACGAUUAGUGCAGAGAAGGUCUAACAUGAGGAUCACCCAUGUAGAUCAUUAACCGAUUAAUU [ENG1/8-A1] (Eterna round: R96, puzzle: Exclusion NG 1) : is its apparent KD of MS2 coat protein no less than 50 nM?
F

API: above_or_equal(metric=apparent KD of MS2 coat protein, cutoff=50 nM) for item ACAUGUCAUUGAGGAUAUUGCAAACAUGAGGAUCACCCAUGUAUACGGAUGCUCUUACGUGGGUUCGAGAAGGCGAUGUACAUU [Ex NG2 #92] (Eterna round: R96, puzzle: Exclusion NG 2)
T

Is apparent KD of MS2 coat protein at least 50 nM? Consider AAAAAGUGAGGAUAUACAUGAGGAUCACCCAUGUAAUAAAAAAAAAGGGUGGAAGAAAGUAGAAGGCACCAAAA [Ex 3 May 48] (Eterna round: R96, puzzle: Exclusion 3)
T
